System: Cryptococcus neoformans
Test Description: Antifungal activity against Cryptococcus neoformans MPU-B by CLSI M27-A2 microdilution method
Type: functional
Parameter: MIC (µg/mL)
Kindly answer with a numeric value in µg/mL, unit omitted.

Molecule	Display Unit	MIC
C[C@@H]1CC[C@H]2[C@H](C(=O)c3c(O)c(-c4ccc(O)cc4)c[nH]c3=O)[C@H](C)C=C[C@@H]2C1 [DIDYMELLAMIDE B]	µg/mL	6.3

// moving on: another record for MIC
Prompt: Give the measured MIC of C[C@@H]1CC[C@H]2[C@H](C(=O)c3c(O)c([C@]4(O)CCC(=O)[C@@H]5O[C@@H]54)cn(O)c3=O)[C@H](C)C=C[C@@H]2C1 [DIDYMELLAMIDE A] .
Completion: 1.6

Reference source for all entries: ChEMBL document CHEMBL2331076
